These measurements were taken from paper PMC4336329.

We begin with a simple list: items and their reported hERG current change (%, negative = inhibition) at 10uM.
# measuredOn: human ether-à-go-go-related gene (hERG) potassium channel (human, UniProt Q12809)
# Sequence (Q12809 whole entry, looked up): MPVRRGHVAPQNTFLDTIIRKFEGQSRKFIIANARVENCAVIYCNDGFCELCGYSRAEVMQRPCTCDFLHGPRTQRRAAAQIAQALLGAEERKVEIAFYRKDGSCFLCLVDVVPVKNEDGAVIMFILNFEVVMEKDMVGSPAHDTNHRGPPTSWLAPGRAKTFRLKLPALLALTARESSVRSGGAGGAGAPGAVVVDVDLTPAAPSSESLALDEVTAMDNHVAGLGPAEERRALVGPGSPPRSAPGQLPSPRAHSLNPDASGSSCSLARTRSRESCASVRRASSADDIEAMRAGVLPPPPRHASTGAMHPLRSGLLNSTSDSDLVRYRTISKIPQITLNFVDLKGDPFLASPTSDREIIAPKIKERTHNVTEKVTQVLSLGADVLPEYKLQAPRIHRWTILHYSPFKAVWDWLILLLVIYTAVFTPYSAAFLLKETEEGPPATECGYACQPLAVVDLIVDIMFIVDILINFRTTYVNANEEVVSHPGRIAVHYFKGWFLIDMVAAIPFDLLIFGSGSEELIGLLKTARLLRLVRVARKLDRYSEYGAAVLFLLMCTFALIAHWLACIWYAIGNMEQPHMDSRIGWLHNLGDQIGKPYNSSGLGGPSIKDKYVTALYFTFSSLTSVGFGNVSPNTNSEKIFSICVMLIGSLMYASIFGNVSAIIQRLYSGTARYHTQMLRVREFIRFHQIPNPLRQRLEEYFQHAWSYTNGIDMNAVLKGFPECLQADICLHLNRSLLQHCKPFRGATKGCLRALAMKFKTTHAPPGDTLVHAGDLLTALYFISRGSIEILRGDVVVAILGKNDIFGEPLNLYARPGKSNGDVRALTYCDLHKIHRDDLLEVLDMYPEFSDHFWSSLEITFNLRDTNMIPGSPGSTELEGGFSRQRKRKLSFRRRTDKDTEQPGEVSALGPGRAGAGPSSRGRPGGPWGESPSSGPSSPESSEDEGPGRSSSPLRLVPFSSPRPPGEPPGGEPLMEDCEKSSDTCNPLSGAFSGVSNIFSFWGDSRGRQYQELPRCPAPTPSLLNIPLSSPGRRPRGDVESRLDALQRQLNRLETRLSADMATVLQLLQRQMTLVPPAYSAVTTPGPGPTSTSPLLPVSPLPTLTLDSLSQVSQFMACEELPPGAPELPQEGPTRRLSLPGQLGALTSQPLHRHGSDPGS
# experimentDescription: primary screen, population patch clamp on CHO cells stably expressing hERG; higher = less effect of the substance;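 further: peak tail current of the secondary pulse compared with the same well before compound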
About 14,000 (4.5%) of roughly 310,000 compounds showed an effect of 50% or more. The effect is printed as a negative number. The list comes from a sample in which strong results are over-represented; it also holds close analogues and randomly drawn compounds.
Give the number; % is assumed, so skip it.

Would you please look over these solved cases?
{"compound": "COC(=O)CNC(=O)C12CC3CC(C1)CC(c1ccc(C)cc1)(C3)C2", "measureUnit": "%", "reportedMeasurement": 12.9}
{"compound": "CC(C)CCN1C(=O)c2ccc(C(=O)OCC(=O)N(C)C3CCS(=O)(=O)C3)cc2C1=O (stereo not drawn)", "measureUnit": "%", "reportedMeasurement": -8.41}
{"compound": "O=c1c2c3c(sc2n(CCN2CCCC2)c(=O)n1Cc1ccccc1)CCCCC3", "measureUnit": "%", "reportedMeasurement": -34.7}
{"compound": "CCN1CCCC1CNC(=O)c1cc2cc(F)ccc2[nH]1 (stereo not drawn)", "measureUnit": "%", "reportedMeasurement": -73.3}
{"compound": "NC(=O)CCCn1c(C(=O)c2ccc(Cl)cc2)c2ccc(C(F)(F)F)cc2[n+]1[O-]", "measureUnit": "%", "reportedMeasurement": -77.9}
{"compound": "O=C(Cn1c(=O)n(Cc2ccco2)c(=O)c2c3c(sc21)CCCC3)Nc1ccccc1", "measureUnit": "%", "reportedMeasurement": 18}
{"compound": "O=c1c2c3c(sc2n(CCN2CCCC2)c(=O)n1Cc1ccco1)CCCCC3", "measureUnit": "%", "reportedMeasurement": -68.6}
{"compound": "CCN1CCC[C@H]1CNC(=O)c1c(O)c(Cl)cc(Cl)c1OC", "measureUnit": "%", "reportedMeasurement": -10.4}

Incoming: Look at this compound and give its reported hERG current change (%, negative = inhibition) at 10uM. `COc1cc(-c2noc(C)c2C(=O)NCCc2c[nH]c3ccccc23)cc(OC)c1OC`
Outgoing: 0.397

Incoming: Look at this compound and give its reported hERG current change (%, negative = inhibition) at 10uM. `O=C(C1=C[C@H](C2CCCCC2)C[C@H](OCCCCO)O1)N1CCN(Cc2ccccc2)CC1`
Outgoing: -46.4

Incoming: Look at this compound and give its reported hERG current change (%, negative = inhibition) at 10uM. `O=C(C1=C[C@@H](C2CCCCC2)C[C@@H](OCc2ccc(CO)cc2)O1)N1CCN(Cc2ccccc2)CC1`
Outgoing: -25.4

Incoming: Look at this compound and give its reported hERG current change (%, negative = inhibition) at 10uM. `OCCN1CCN(c2ncnc3c2c(-c2ccccc2)cn3-c2ccc(Br)cc2)CC1`
Outgoing: -15.2

Incoming: Look at this compound and give its reported hERG current change (%, negative = inhibition) at 10uM. `CCC(=O)Nc1ccc(C(=O)Nc2cccnc2)cc1`
Outgoing: -0.52

Incoming: Look at this compound and give its reported hERG current change (%, negative = inhibition) at 10uM. `O=C(C1=C[C@@H](C2CCCCC2)C[C@@H](OCCCCO)O1)N1CCN(Cc2ccc3c(c2)OCO3)CC1`
Outgoing: -45.1

Incoming: Look at this compound and give its reported hERG current change (%, negative = inhibition) at 10uM. CCN1CCCC1CNC(=O)c1cc2cc(OC)c(OC)cc2[nH]1 (stereo not drawn)
Outgoing: 16.6

Incoming: Look at this compound and give its reported hERG current change (%, negative = inhibition) at 10uM. `COCCn1c(=S)[nH]c2ccccc21`
Outgoing: 28.7

Incoming: Look at this compound and give its reported hERG current change (%, negative = inhibition) at 10uM. `CCN(C(=O)Cn1c(=O)oc2ccccc21)c1cccc(C)c1`
Outgoing: 6.38

Incoming: Look at this compound and give its reported hERG current change (%, negative = inhibition) at 10uM. `O=C(CSc1nnc(-c2ccc(O)cc2)n1Cc1ccccc1)NNC(=O)c1ccc(Br)cc1`
Outgoing: -4.24
